system: A549; test: Euclidean distance of Cell Painting phenotypic profile (signed KS, 77 features) to DMSO centroid (dimensionless distance); 5 or 10 uM (library dependent); higher = stronger phenotypic change vs DMSO (phenoactivity); settings: 48 h
Counter-ions that a name gives are not always drawn.
reported.metric: Euclidean distance
# output: bare number, no unit

>>> numeric_readout("C=C1C[C@@]2(O)O[C@@]3(C[C@H]2C(C)C)[C@@H](C)CC[C@@H]13")
1.43
>>> numeric_readout("OCCOc1ccc(/C(=C(/CCCl)c2ccccc2)c2ccccc2)cc1")
1.29
>>> numeric_readout("COc1c(C)c2c(c(O)c1C/C=C(\\C)CCC(=O)OCCN1CCOCC1)C(=O)OC2 [Mycophenolate Mofetil]")
3.61
>>> numeric_readout("C[C@H]1C[C@H]2[C@@H]3CCC4=CC(=O)C=C[C@]4(C)[C@@]3(F)[C@@H](O)C[C@]2(C)[C@@]1(O)C(=O)CO")
2.01
>>> numeric_readout("NC(=O)c1cnc2[nH]ccc2c1N[C@@H]1[C@@H]2CC3C[C@H]1C[C@@](O)(C3)C2")
2

Give the reported value of Euclidean distance for this record: CC1(C)CCC[C@]2(C)[C@H]3CC(=O)O[C@]3(C)CC[C@@H]12 [Sclareolide]
1.52

Specify Euclidean distance for `CCOc1ccc2c(c1)C(C)=CC(C)(C)N2` and stop.
1.17

Kindly indicate its recorded Euclidean distance. Item: `CCOCCn1c(C2CCN(CCc3ccc(C(C)(C)C(=O)O)cc3)CC2)nc2ccccc21`
1.12

Please look at this molecule and report its Euclidean distance: CC(CCc1ccccc1)NCC(O)c1ccc(O)c(C(N)=O)c1 (stereo unspecified) [Labetalol HCl]
0.727

Return reported Euclidean distance. Input molecule: O=C1CC2(CCCC2)CC(=O)N1CCCCN1CCN(c2ncccn2)CC1 [Buspirone HCl]
0.965

Write down Euclidean distance measured for item CCCC(=O)O[C@]1(C(=O)CCl)[C@H](C)C[C@@H]2[C@@H]3CCC4=CC(=O)C=C[C@]4(C)[C@]3(F)C(=O)C[C@@]21C [clobetasone butyrate]
2.42

Look up and state reported Euclidean distance for `CCCCCCCCCCCC1=C(O)C(=O)C=C(O)C1=O`
1.18

---

# maps each entry to its Euclidean distance
system: OVCAR4; assay: Euclidean distance of Cell Painting phenotypic profile (signed KS, 77 features) to DMSO centroid (dimensionless distance); 5 or 10 uM (library dependent); higher = stronger phenotypic change vs DMSO (phenoactivity); details: 48 h
Reply briefly: the number, and no unit.

Below, each entry is followed by its recorded Euclidean distance result.
>>> numeric_readout("COc1cc(Nc2ncc(F)c(Nc3ccc4c(n3)N(COP(=O)(O)O)C(=O)C(C)(C)O4)n2)cc(OC)c1OC [Fostamatinib (R788)]")
3.7
>>> numeric_readout("CC[C@@H](C)Nc1cc(C(=O)N[C@H]2C[C@H]3CC[C@@H](C2)N3c2ccc(C(=O)C3CC3)cn2)c(C)cc1C(N)=O")
3.3
>>> numeric_readout("C#C[C@]1(O)CC[C@H]2[C@@H]3CCC4=Cc5oncc5C[C@]4(C)[C@H]3CC[C@@]21C")
1.02

Now let's try a different one.
Identify measured Euclidean distance corresponding to `CCC(=O)c1c(O)cc(O)cc1O`
1.04

---

test system: OVCAR4; assay: Euclidean distance of Cell Painting phenotypic profile (signed KS, 77 features) to DMSO centroid (dimensionless distance); 5 or 10 uM (library dependent); higher = stronger phenotypic change vs DMSO (phenoactivity); details: 48 h
Where a name gives a salt, the structure may show the parent alone.
reported.metric: Euclidean distance
Give only the figure.

Illustrative cases are given below, each with its answer.
>>> numeric_readout("Cc1ccccc1C(OCCN(C)C)c1ccccc1 (stereo unspecified) [Orphenadrine Citrate]")
1.07
>>> numeric_readout("Cc1ccc(S(=O)(=O)NC(=O)NN2CC3CCCC3C2)cc1 (stereo unspecified) [Gliclazide]")
1.65

Could you please provide reported Euclidean distance for CC(C)(Sc1ccncc1-c1ccc(C#N)c2ccccc12)C(=O)O [Verinurad (RDEA3170)] ? Thanks!
1.2

Note down Euclidean distance recorded for `COc1cccc(-c2cc(=O)c3ccccc3o2)c1N`
0.844

Give reported Euclidean distance value for `COc1ccc(Cl)cc1NC(=O)Nc1cc(C)nc2ccccc12`
1.47

For the compound `CC(=O)N1C[C@H](O)C[C@H]1C(=O)O` , report Euclidean distance.
1.28
